biological target: RUNX1 (UniProt Q01196); test: RUNX1 binding intensity (PBM fluorescence) in presence of ETS1, normalised to RUNX1-only experiment (arbitrary fluorescence units); higher = stronger binding; conditions: RUNX1 concentration 2 nM; ETS1 concentration 25 nM;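 also: Full-length recombinant human ETS1 or RUNX1 bound to double-stranded 36-bp genomic probes on microarrays, detected by protein-specific primary antibody and Alexa488 secondary, spot fluorescence as median of four replicate spots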
Sequence (Q01196 whole entry): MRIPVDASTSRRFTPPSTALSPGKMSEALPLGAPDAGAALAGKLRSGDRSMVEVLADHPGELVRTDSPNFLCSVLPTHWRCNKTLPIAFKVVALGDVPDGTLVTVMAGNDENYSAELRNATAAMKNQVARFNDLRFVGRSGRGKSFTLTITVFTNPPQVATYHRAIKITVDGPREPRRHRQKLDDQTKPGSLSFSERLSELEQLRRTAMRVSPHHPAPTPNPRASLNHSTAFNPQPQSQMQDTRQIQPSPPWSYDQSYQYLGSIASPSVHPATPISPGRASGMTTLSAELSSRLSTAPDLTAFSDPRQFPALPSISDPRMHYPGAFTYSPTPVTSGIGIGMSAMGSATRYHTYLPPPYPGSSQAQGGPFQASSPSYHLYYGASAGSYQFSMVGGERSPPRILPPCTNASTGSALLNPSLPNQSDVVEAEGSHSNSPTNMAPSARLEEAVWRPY
Recorded RUNX1 binding intensity values for a group of sequences are listed next.
Reply with the value as a number alone.

Some sequences with known RUNX1 binding intensity results, for comparison:
sequence_entry=CACTTCCTATCGCTACATAACAAATTACCACAGACT experimental_value=6310
sequence_entry=AAGACAACATCCTGCCGGCACAGCCTGCGGGTTACT experimental_value=1420
sequence_entry=TACAGGAACTTCCTGCGCGGCTGCTGTGGTTGCGAG experimental_value=1680
sequence_entry=ATAGACCCAGCCCGTCCGGTAACCGCGCTCCTCGAT experimental_value=913

Next sequence, please.
Let me know recorded RUNX1 binding intensity for GTCGGAAGTGGCCGTGAGCCCAAGCCGCGGTCCCGG , thanks.
951
